test system: Fibroblast; assay: Multiplex assay against human fibroblast; assay type: toxicity, cell-based; conditions: 24 h, 1 µM, compound concentration 1 uM, replicate 1
readout label: Population Tubulin-Different-Phenotype (%)

compound=C=CC(=O)Nc1ccc2ncnc(Nc3ccc(OCc4cccc(F)c4)c(Cl)c3)c2c1.Cc1ccc(S(=O)(=O)O)cc1 measured_target=Fibroblast val=40
compound=Cc1csc2c(N[C@@H](C)CN3CCN(S(=O)(=O)c4ccc(Cl)c(Cl)c4)CC3)ncnc12 measured_target=Fibroblast val=90
compound="COc1cccc([C@@H](C)NCCCc2ccccc2Cl)c1.Cl [TECALCET HYDROCHLORIDE]" measured_target=Fibroblast val=62
compound=CN1CCN(c2ccc(OC(F)(F)F)c(Nc3ncc4c(n3)-c3c(c(C(N)=O)nn3CCO)CC4)c2)CC1 measured_target=Fibroblast val=61
compound=Cc1c(-c2ccc(O)cc2)n(Cc2ccc(OCCN3CCCCCC3)cc2)c2ccc(O)cc12 measured_target=Fibroblast val=46
compound="CC(C)NCC(O)COc1ccc(CCOCC2CC2)cc1.Cl (centres undefined) [BETAXOLOL HYDROCHLORIDE]" measured_target=Fibroblast val=34
compound="CN1CCCC(n2nc(Cc3ccc(Cl)cc3)c3ccccc3c2=O)CC1.Cl (centres undefined) [AZELASTINE HYDROCHLORIDE]" measured_target=Fibroblast val=66
compound=Cc1nc(Nc2n[nH]c3c2CN(C(=O)N[C@H](CN(C)C)c2ccccc2)C3(C)C)c2sccc2n1 measured_target=Fibroblast val=7
compound=CN(C)CC#Cc1ccc(OCCCc2sc(N3CCc4cccc(C(=O)Nc5nc6ccccc6s5)c4C3)nc2C(=O)O)c(F)c1 measured_target=Fibroblast val=50
compound=Cc1nc(-c2cn3c(n2)-c2ccc(-c4cnn(C(C)(C)C(N)=O)c4)cc2OCC3)n(C(C)C)n1 measured_target=Fibroblast val=18
compound=CNCc1ccc(-c2cc(-c3nc(-c4ccc(S(=O)(=O)C(C)C)cc4)cnc3N)on2)cc1 measured_target=Fibroblast val=0
compound=COc1cc(-n2cnc3cc(-c4ccc(Cl)cc4)sc3c2=O)ccc1OCCN1CCCC1 measured_target=Fibroblast val=32
compound=Cn1cc(-c2[nH]c3cc(NC(=O)[C@H](N)C4CCCCC4)cc4c3c2C=NNC4=O)cn1 measured_target=Fibroblast val=26
compound=Cc1cc(C)cc(-c2cnc3cc(Cl)c(-c4cccc(O)c4)cc3c2OCCCN)c1 measured_target=Fibroblast val=20
compound=C[C@@]1(C(=O)Nc2ccc(F)nc2)CCCN1c1nc(Nc2cc(C3CC3)n[nH]2)c2cccn2n1 measured_target=Fibroblast val=70
compound=CN1CCN(CCOc2cc(OC3CCOCC3)c3c(Nc4c(Cl)ccc5c4OCO5)ncnc3c2)CC1 measured_target=Fibroblast val=35
compound="O=C1NCN(c2ccccc2)C12CCN(CCCOc1ccc(F)cc1)CC2 [SPIRAMIDE]" measured_target=Fibroblast val=44
compound="CN(C)C(=O)N[C@H]1CC[C@H](CCN2CCN(c3cccc(Cl)c3Cl)CC2)CC1.Cl [CARIPRAZINE HYDROCHLORIDE]" measured_target=Fibroblast val=45
compound="C[C@@H](NCCCc1cccc(C(F)(F)F)c1)c1cccc2ccccc12.Cl [CINACALCET HYDROCHLORIDE]" measured_target=Fibroblast val=65
compound=CN(C)C(=O)/C(C#N)=C/c1ccc(-c2nc3cnc4[nH]ccc4c3n2C2CCCCC2)o1 measured_target=Fibroblast val=41
compound=COc1ncc(-c2ccc3nccc(-c4ccnnc4)c3c2)cc1NS(=O)(=O)c1ccc(F)cc1F measured_target=Fibroblast val=42
compound=CNc1nc(NCc2ccc(NS(C)(=O)=O)cc2Cl)cc(-c2ccccn2)n1 measured_target=Fibroblast val=43
compound=Cc1[nH]c(/C=C2\C(=O)Nc3ccc(S(=O)(=O)N(C)c4cccc(Cl)c4)cc32)c(C)c1C(=O)N1CCN(C)CC1 measured_target=Fibroblast val=62
compound="CN1CCC[C@@H]1CCO[C@](C)(c1ccccc1)c1ccc(Cl)cc1.O=C(O)/C=C/C(=O)O [CLEMASTINE FUMARATE]" measured_target=Fibroblast val=60
compound=Cc1nc(-c2ccc(-c3ccc(C(=O)N4CCc5cc6c(cc54)C4(CCN(C)CC4)CO6)cc3)c(C)c2)no1 measured_target=Fibroblast val=79
compound=C=CC(=O)Nc1cccc(C(=O)Nc2ccc(Nc3cc(-c4[nH]c(SC)nc4C)ccn3)cc2)c1 measured_target=Fibroblast val=34
compound="C=CC(=O)Nc1cc2c(Nc3ccc(F)c(Cl)c3)ncnc2cc1OCCCN1CCOCC1.Cl.Cl [CANERTINIB DIHYDROCHLORIDE]" measured_target=Fibroblast val=64
compound=c1cn2cc(-c3ccc4cn[nH]c4c3)nc(Nc3ccc(N4CCOCC4)cc3)c2n1 measured_target=Fibroblast val=51
compound=OC1(c2ccc(Cl)cc2)CCN(Cc2c[nH]c3ccccc23)CC1 measured_target=Fibroblast val=42
compound=CC[C@H](C)C(=O)O[C@H]1C[C@@H](C)C=C2C=C[C@H](C)[C@H](CC[C@@H]3C[C@@H](O)CC(=O)O3)[C@H]21 measured_target=Fibroblast val=38
compound=CC(C)(O)CNc1ncc(-c2ccnc(Nc3ccnc(Cl)c3)n2)c(CC2CC2)n1 measured_target=Fibroblast val=53
compound=NC(=O)Nc1cc(-c2cccc(F)c2)sc1C(=O)N[C@H]1CCCNC1 measured_target=Fibroblast val=2
compound="Cl.N#Cc1ccc2[nH]cc(CCCCN3CCN(c4ccc5oc(C(N)=O)cc5c4)CC3)c2c1 [VILAZODONE HYDROCHLORIDE]" measured_target=Fibroblast val=51
compound=CCN(CC)CCCCNc1ncc2cc(-c3cc(OC)cc(OC)c3)c(NC(=O)NC(C)(C)C)nc2n1 measured_target=Fibroblast val=9
